Overview of reported T/C across a group of compounds:
system: P388 leukemia ip, CD2F1 mice, survival T/C; experiment: NCI In Vivo Anticancer Drug Screen. Data for tumor model P388 Leukemia (intraperitoneal) in CD2F1 (CDF1) mice; conditions: endpoint: median survival time; dose: 25.0 mg/kg/injection; schedule: Q04DX003 (ip); vehicle: saline; higher = longer survival
Toxic doses and inconclusive results are not listed.

>>> result("Cc1c2cc[n+](CCO)cc2c(C)c2c1[nH]c1ccc(O)cc12")
"92 % of control"

Would you kindly look at the next entry?
T/C in this record for CC1CN1P1(N2CC2C)=NP(N2CC2C)(N2CC2C)=NP(N2CC2C)(N2CC2C)=N1 (stereo not given) : 112 % of control

* * *

system: P388 leukemia ip, CD2F1 mice, survival T/C; assay: NCI In Vivo Anticancer Drug Screen. Data for tumor model P388 Leukemia (intraperitoneal) in CD2F1 (CDF1) mice; conditions: endpoint: median survival time; dose: 400.0 mg/kg/injection; schedule: Q01DX009 (ip); vehicle: saline with Tween-80; higher = longer survival
Toxic doses and inconclusive results are not listed.
Overview of reported T/C across a group of compounds:

Consider the following illustrative entries.
>>> result("CCCCCCCCCSc1ccc(C(=O)O)cc1")
"105 % of control"
>>> result("COc1ccc(NC(=O)CCC(=O)O)cc1")
"91 % of control"
>>> result("O=[N+]([O-])c1ccc(/C=C\\c2ccc(Cl)cc2S(=O)(=O)F)c(Cl)c1")
"104 % of control"
>>> result("COc1c(OC(C)=O)ccc2c1C=CCCC2=O")
"102 % of control"
>>> result("CCCCNC(=O)CCC")
"97 % of control"

T/C in this record for COC(=O)CCCCCC(O)C1CCC2OC(=O)CC21C (centres undefined) : 100 % of control

T/C in this record for Cc1cccnc1NS(=O)(=O)c1ccccc1 : 100 % of control

* * *

tested on: P388 leukemia ip, CD2F1 mice, survival T/C; experiment: NCI In Vivo Anticancer Drug Screen. Data for tumor model P388 Leukemia (intraperitoneal) in CD2F1 (CDF1) mice; conditions: endpoint: median survival time; dose: 100.0 mg/kg/injection; schedule: Q04DX003 (ip); vehicle: saline with Tween-80; higher = longer survival
Inconclusive results and toxic doses are left out.
Endpoint Name: T/C

Consider the following illustrative entries.
>>> result("CC(=O)OCC(Br)C(Br)COC(C)=O (stereo unspecified)")
"100 % of control"
>>> result("O=C(N/N=C/c1ccccc1O)C(O)(c1ccccc1)c1ccccc1")
"107 % of control"
>>> result("OCC1CC=CCC1 (stereo unspecified)")
"90 % of control"
>>> result("CC(=O)OCC1OC(n2nc(/C=C/c3ccco3)c(=O)n(-c3ccccc3)c2=S)C(OC(C)=O)C(OC(C)=O)C1OC(C)=O (stereo unspecified)")
"107 % of control"
>>> result("COc1cc(/C=N\\Nc2ccccc2[N+](=O)[O-])cc(OC)c1OC")
"87 % of control"

Would you kindly look at the next entry?
T/C in this record for CN=P1(NC)NP(=NC)(NC)NP(=NC)(NC)NP(=NC)(NC)N1.[Cl-].[Cl-].[Cl-].[Cl-].[Pt+2] (stereo unspecified) : 109 % of control

* * *

test system: P388 leukemia ip, CD2F1 mice, survival T/C; test: NCI In Vivo Anticancer Drug Screen. Data for tumor model P388 Leukemia (intraperitoneal) in CD2F1 (CDF1) mice; settings: endpoint: median survival time; dose: 200.0 mg/kg/injection; schedule: Q04DX003 (ip); vehicle: Klucel (hydroxypropylcellulose) (HPC)
Inconclusive results and toxic doses are left out. How the source made its calls: active means survival T/C of 150% or more; inactive means T/C below 125% in these data.
Choose the fitting class; nothing outside true (1) (active), false (0) (inactive) is accepted.

Reference set, count: 2
>>> label_value("O=S(=O)(CCCl)c1ccccc1")
"false (0)"
>>> label_value("O=c1c2nccnc2nc2n1CCS2")
"false (0)"

**Query** Please state the recorded outcome for this compound: C1COC2(CCC3(CC2)OCCO3)O1
**Result** false (0)

**Query** Please state the recorded outcome for this compound: CCOC(=O)C1(C)OC1c1ccc([N+](=O)[O-])cc1 (stereo not given)
**Result** false (0)

**Query** Please state the recorded outcome for this compound: NC(=O)Cc1nn[nH]n1
**Result** false (0)

**Query** Please state the recorded outcome for this compound: CCN(CC)c1ccc2cc(-c3nc4ccccc4n3C)c(=O)oc2c1
**Result** true (1)

**Query** Please state the recorded outcome for this compound: CCOC(=O)/C(C#N)=C1/CCCN1C
**Result** false (0)

**Query** Please state the recorded outcome for this compound: CC(C)(C)c1cc(C(=O)O)c2c(c1)C(=O)OCS2
**Result** false (0)

**Query** Please state the recorded outcome for this compound: c1ccc(C2(c3ccccc3)CCc3ccccc3O2)cc1
**Result** false (0)

**Query** Please state the recorded outcome for this compound: CCOC(=O)c1ccc(OC)c2[nH]c3c(c(=O)c12)C(=O)c1[nH]c2c(OC)ccc(C(=O)OCC)c2c(=O)c1C3=O
**Result** false (0)

* * *

test system: P388 leukemia ip, CD2F1 mice, survival T/C; test: NCI In Vivo Anticancer Drug Screen. Data for tumor model P388 Leukemia (intraperitoneal) in CD2F1 (CDF1) mice; conditions: endpoint: median survival time; dose: 25.0 mg/kg/injection; schedule: Q01DX009 (ip); vehicle: other; higher = longer survival
Inconclusive results and toxic doses are left out.
Endpoint Name: T/C

Consider the following illustrative entries.
>>> result("Cc1cc(NCCCCNCCCNc2cc(C)nc3cc(N)ccc23)c2ccc(N)cc2n1")
"175 % of control"
>>> result("CC(=O)OCC1OC(OC(C)=O)C(NC(=O)CNC(=O)OCc2ccccc2)C(OC(C)=O)C1OC(C)=O (configuration not stated)")
"100 % of control"
>>> result("C1=Cc2ccccc2CS1")
"106 % of control"
>>> result("CCOc1cccc2c1C(=O)c1c(OCC)c3c(c(OCC)c1C2=O)CC(O)(C(C)=O)CC3O (configuration not stated)")
"90 % of control"
>>> result("CCOC(=O)C1CCc2ccc(OC)c(OC)c2C1 (configuration not stated)")
"97 % of control"
>>> result("COC(=O)C(Br)CN1C(=O)c2ccccc2C1=O (configuration not stated)")
"102 % of control"

Would you kindly look at the next entry?
T/C in this record for C[C@]12CCC(=O)C[C@@H]1CC[C@@H]1[C@@H]2CC[C@]2(C)[C@@H](OC(=O)N(CCCl)N=O)CC[C@@H]12 : 120 % of control

* * *

tested on: P388 leukemia ip, CD2F1 mice, survival T/C; experiment: NCI In Vivo Anticancer Drug Screen. Data for tumor model P388 Leukemia (intraperitoneal) in CD2F1 (CDF1) mice; conditions: endpoint: median survival time; dose: 12.5 mg/kg/injection; schedule: Q01DX005 (ip); vehicle: saline with Tween-80; higher = longer survival
Inconclusive results and toxic doses are left out.
Overview of reported T/C across a group of compounds:

>>> result("CN(C)C1c2cc3ccccc3nc2-c2ccccc2C1(C)C (stereo unspecified)")
"95 % of control"
>>> result("CNC(=O)OCC1=C(Sc2ccccc2)C(=O)C(OC)=C(OC)C1=O")
"106 % of control"
>>> result("N=C1CCC(=N)c2c1c(O)c1ccccc1c2O")
"104 % of control"
>>> result("CCCCC1CN=C(OCC)N1 (stereo unspecified)")
"98 % of control"
>>> result("CCNC(CC)CCCNc1cc(OC)cc2cccnc12 (stereo unspecified)")
"98 % of control"
>>> result("CSC(=S)N/N=C(\\Cc1ccccc1)c1ccccn1")
"103 % of control"
>>> result("CCn1c2ccccc2c2cc(NC(N)=S)ccc21")
"100 % of control"
>>> result("N=C(N)c1nn(C2OC(CO)C(O)C2O)c2nc[nH]c(=O)c12 (stereo unspecified)")
"121 % of control"
>>> result("COC(=O)C1C(=O)C(NC(=O)CCCCl)C(c2ccccc2)C(C(=O)OC)C1=O (stereo unspecified)")
"103 % of control"
>>> result("CCN(CC)CCNc1ccc(COC(=O)OC)c2oc3ccccc3c(=O)c12")
"111 % of control"

I looked up Cc1ccc(S(=O)(=O)Nc2ccc(-c3cc4cc(Cl)ccc4o3)cc2)cc1 and its T/C for P388 leukemia ip, CD2F1 mice, survival T/C was 91 % of control

I looked up CC(C)NCC(O)c1ccccc1Cl (stereo unspecified) and its T/C for P388 leukemia ip, CD2F1 mice, survival T/C was 100 % of control

I looked up CCC1(CCC(=O)OC)CCC[N+]2=C1c1[nH]c3ccc(Br)cc3c1CC2 (stereo unspecified) and its T/C for P388 leukemia ip, CD2F1 mice, survival T/C was 100 % of control

I looked up CCN(CCNc1ccc(C)c2sc3cc(Cl)ccc3c(=O)c12)CC(C)(C)O and its T/C for P388 leukemia ip, CD2F1 mice, survival T/C was 95 % of control

I looked up CCc1nc(N)nc(N)c1-c1ccc(Cl)c(NN=NC)c1 and its T/C for P388 leukemia ip, CD2F1 mice, survival T/C was 109 % of control

I looked up O=C1CN(Cc2ccc(Cl)cc2)CC(=O)N2CCCN12 and its T/C for P388 leukemia ip, CD2F1 mice, survival T/C was 96 % of control
